Entry source: PubChem BioAssay (NCI)

- assay comment: NCI Yeast Anticancer Drug Screen. Data for the mlh1 rad18 strain (AID 175)
- experimental context: S. cerevisiae mlh1 rad18 strain growth inhibition; at 50.0 µM (retest, dose inferred, filed as 5.0)
This is part of a sample that, as a whole, favours compounds with a hit. Of some 79,000 tested, about 15% had one in any assay. Activity calls are given as the source filed them. No stated cut-off is given here; in the data, active means growth inhibition above about 70%; inactive means the rest.
Classes used: yes for active, no for inactive

{"molecule": "O=C1OC(OC/C(Br)=C(/Br)COC2OC(=O)C(Cl)=C2Cl)C(Cl)=C1Cl (stereo unspecified)", "assigned label": "yes"}
{"molecule": "O/N=C1/CCCC/C1=C\\c1ccc(Cl)c(Cl)c1", "assigned label": "yes"}
{"molecule": "O=C1C=CC(=O)N1c1ccc2c(c1)Cc1cc(Cl)ccc1-2", "assigned label": "yes"}
{"molecule": "CCOC(=O)n1c2ccccc2c(=O)n1CCO", "assigned label": "no"}
{"molecule": "C/C=C/c1ccc(OCC(=O)O)c(OC)c1", "assigned label": "no"}
{"molecule": "COc1ccc2c(c1)Cc1cc(NC(=O)N(CCCl)N=O)ccc1-2", "assigned label": "yes"}

---

- assay comment: NCI Yeast Anticancer Drug Screen. Data for the rad50 strain (AID 155);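 further: 0% = growth of vehicle-only cultures of the same strain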
- experimental context: S. cerevisiae rad50 strain growth inhibition; at 50.0 µM; hits give high values
Compounds without any hit were thinned out: in the full panel of roughly 79,000, 15% have a hit.

{"compound": "S=c1[nH]nc(SCc2ccc(Cl)c(Cl)c2)c2[nH]cnc12", "growth inhibition / %": 1.45}
{"compound": "C/C(=N/NC(=S)N1CCCCC1)c1cccc(/C(C)=N\\NC(=S)N2CCCCC2)n1", "growth inhibition / %": 74.2}
{"compound": "CCSC(=O)/C=C1\\CN(C(=O)OC(C)(C)C)C1C(=O)OC(C)(C)C (centres undefined)", "growth inhibition / %": 30.1}
{"compound": "Oc1ccc(N=Nc2ccccc2)cc1", "growth inhibition / %": 98.5}
{"compound": "O=C(O)/C(=C\\c1ccc(O)cc1)c1cccc2ccccc12", "growth inhibition / %": 45.3}
{"compound": "N#Cc1c(Cl)nnc(-c2ccccc2)c1-c1ccccc1", "growth inhibition / %": 89.3}
{"compound": "C=C1C(=O)OC(C)(C)C1c1ccc(Cl)c(Cl)c1 (centres undefined)", "growth inhibition / %": 99.5}
{"compound": "O=C1c2ccccc2-c2cc3ccccc3nc21", "growth inhibition / %": 72.7}
{"compound": "CC12CCC3c4cc(O)ccc4CCC3C1CCC2O (centres undefined)", "growth inhibition / %": 50.2}
{"compound": "CNC(=O)NC(c1cc(OC)c(OC)c(OC)c1)c1cc2c(cc1O)OCO2 (centres undefined)", "growth inhibition / %": 17.2}
{"compound": "Clc1cc(Cl)c(OCCOCCI)c(Cl)c1", "growth inhibition / %": 28.1}
{"compound": "O=c1oc2c3ccc4ccccc4c3n(CCCN3CCCCC3)c2c2ccccc12", "growth inhibition / %": 54.4}
{"compound": "CCN(CC)c1ccc2nc3ccc(N(CC)CC)cc3[n+](-c3ccccc3)c2c1", "growth inhibition / %": 92.1}
{"compound": "COc1cccc2nc3c(C(=O)NCCN(C)C)cccc3cc12", "growth inhibition / %": 81.7}
{"compound": "CCCC(C(=O)OCCN1CCCC1(C)C)C1CCCC1 (centres undefined)", "growth inhibition / %": 41}
{"compound": "CC1([N+](=O)[O-])C(=O)C2(N3CCOCC3)CCCC2C1c1ccccc1 (centres undefined)", "growth inhibition / %": -2}
{"compound": "CC(C)(C)/C=N/NS(=O)(=O)c1ccccc1", "growth inhibition / %": -1}
{"compound": "CCCCC(=O)OC1=C(Br)C(=O)c2ccccc2C1=O", "growth inhibition / %": 96.3}
{"compound": "CC(=O)N(C1=C(Cl)C(=O)c2ccccc2C1=O)c1ccc(C)cc1", "growth inhibition / %": 99.5}
